- Tested on: Escherichia coli TOP10;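 further: peptides expressed intracellularly from a pBAD plasmid library in pooled LB shake-flask culture, induced with 0.3% L-arabinose, DNA abundance read by NGS, three biological replicates, DESeq2 with apeglm shrinkage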
- EXPERIMENT SUMMARY: shrunken log2 fold change of peptide-encoding DNA abundance (4.5 h post-induction vs induction); higher = less antimicrobial activity (less host growth inhibition)
- TEST CONTEXT: time post-induction: 4.5 h; library: site-saturation at positions 5, 18, 19, 20
READOUT: shrunken log2 fold change
Give the value as a plain number.

For RRIRFRPPRLPRPRPRPYWDPRP the sequence record lists shrunken log2 fold change as -2.48

Noted for RRIRVRPPRLPRPRPRPTIEPRP : its shrunken log2 fold change reads 0.061

Record RRIRPRPPRLPRPRPRPTLCPRP , field shrunken log2 fold change: -0.0815

Please fill in: shrunken log2 fold change reported for RRIRERPPRLPRPRPRPAYTPRP = -0.284

Lab note: measured shrunken log2 fold change of RRIRNRPPRLPRPRPRPYTMPRP was -0.38

So, RRIRTRPPRLPRPRPRPPASPRP ? Its shrunken log2 fold change was 1.72
